Values compiled from paper PMC7819943.

# System under test: OsWRKY34 (Oryza sativa, UniProt Q0JBA9 1-250)
# Sequence (Q0JBA9 entry or part of it): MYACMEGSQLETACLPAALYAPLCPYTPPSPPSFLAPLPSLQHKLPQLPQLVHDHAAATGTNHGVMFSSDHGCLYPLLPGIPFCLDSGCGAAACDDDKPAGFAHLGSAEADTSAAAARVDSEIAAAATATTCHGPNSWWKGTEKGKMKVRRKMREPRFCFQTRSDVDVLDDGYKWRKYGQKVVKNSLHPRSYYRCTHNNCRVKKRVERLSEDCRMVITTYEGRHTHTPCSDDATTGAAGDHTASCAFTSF
# Protocol description: protein-binding microarray (RPBM); PBS, 2% BSA, 51.3 ng/ul salmon testes DNA, 50 uM zinc acetate, 200 nM TF, 25 C, 1 h; high values mean tight binding
# Conditions used: protein: recombinant; tags: N-terminal polyhistidine and DsRed monomer fusion (pET32a); label: CyDye5-dUTP incorporated in the synthesized complementary strand; 3' TTTTT single-stranded linker to array surface; dsDNA, one strand shown
In all, about 68,000 sequences were measured (“fluorescence intensity (a.u.)”: median about 9,100, highest 2% from about 16,000 on). The entries come from a sample that favours the highest values as a whole.
In this section, each of the sequences is paired with its reported binding signal.

GGAGTTTGGTTGGTTGGTGGTGTTCTTGACGGGGCATGGACGGAGTCACCTAGTGCAG    31200 fluorescence intensity (a.u.)
GTTTTACACTATTCACGTTCAACGTTTGACCGTTCGTCTTCGGAGTCACCTAGTGCAG    13400 fluorescence intensity (a.u.)
CCTCTATTTCATATTATACGTCGTTGACTTTTTTCTTAGTCGGAGTCACCTAGTGCAG    17400 fluorescence intensity (a.u.)

-- ask Name the reported binding signal value associated with the sequence `CTTACTCTCTCCGTCTCTAAATATTTGACGCCGTTGACTTCGGAGTCACCTAGTGCAG`
-- reply 12900 fluorescence intensity (a.u.)

-- ask Look up binding signal for this sequence: `TAAGACGTTTTGACTTTTTTTTTTCCTATTTAAACCTTTTCGGAGTCACCTAGTGCAG`
-- reply 13500 fluorescence intensity (a.u.)

-- ask # query: binding signal of entry `AGTTTTGCACTGTTTATGTCTCACGTTTGACCGTTCGTTTCGGAGTCACCTAGTGCAG`
-- reply 11400 fluorescence intensity (a.u.)

-- ask What value of measured binding signal is listed for `CGCTGTATTTTGTTGGGATCACCTGTACATTTCTTCACAACGGAGTCACCTAGTGCAG` ?
-- reply 10900 fluorescence intensity (a.u.)

-- ask Quick one: binding signal for `CACACATAAACTTTTAACTTTTTTATCACATCGTTTTAATCGGAGTCACCTAGTGCAG` ?
-- reply 8490 fluorescence intensity (a.u.)

-- ask Would you kindly share the measured binding signal for `TGTCGCCATCGTATCACCGTCGCGTCGCCATCCCGTCGCCCGGAGTCACCTAGTGCAG` ?
-- reply 8070 fluorescence intensity (a.u.)

-- ask Request the reported binding signal associated with `TTACACTGTTCATGTCTCACGTTTGACCGTTCGTTTTATTCGGAGTCACCTAGTGCAG`
-- reply 16400 fluorescence intensity (a.u.)

* * *

# System under test: OsWRKY34 (Oryza sativa, UniProt Q0JBA9 1-250)
# Protocol description: protein-binding microarray (RPBM); PBS, 2% BSA, 51.3 ng/ul salmon testes DNA, 50 uM zinc acetate, 200 nM TF, 25 C, 1 h; high values mean tight binding
# Conditions used: protein: recombinant; tags: N-terminal polyhistidine and DsRed monomer fusion (pET32a); label: CyDye5-dUTP incorporated in the synthesized complementary strand; 3' TTTTT single-stranded linker to array surface; dsDNA, one strand shown
The full ranking holds about 68,000 sequences; the median of “fluorescence intensity (a.u.)” is about 9,100, and the highest 2% start at about 16,000. The full list was thinned out, with the highest values kept by preference.
Quantity kind: binding signal

Answered cases to consult:
ACTGTAGCCCATTTTTGATATGGCCAAGGCCCACATAGCACGGAGTCACCTAGTGCAG    8260 fluorescence intensity (a.u.)
CCCCAAAATTTTTCACCATGTCACATCAAACGTTTGAACACGGAGTCACCTAGTGCAG    8490 fluorescence intensity (a.u.)
GTGTGTTGGAGCTGCCGGTGTGTGGGTGGGGTTATTTTTTCGGAGTCACCTAGTGCAG    25100 fluorescence intensity (a.u.)
GATTGGGTTGTTTGCGGGGCTAAGTTCCTAATTTTAATGACGGAGTCACCTAGTGCAG    11500 fluorescence intensity (a.u.)
AGAGCTTGTGTGGTGGTGGGGCATCAGTGTGTCAGTTGTGCGGAGTCACCTAGTGCAG    17100 fluorescence intensity (a.u.)

-- ask GET /values?readout=binding signal&item= `CTTCCTCCGTTTCACAATGTAAGTCGTTCTAGCATTTTTCCGGAGTCACCTAGTGCAG`
-- reply 8110 fluorescence intensity (a.u.)

-- ask // query binding signal value for entry `CTTTCCTGTACTATTTTACTGTCCGATTTACAACATGTGACGGAGTCACCTAGTGCAG`
-- reply 12900 fluorescence intensity (a.u.)

-- ask // query binding signal value for entry `CTTTGCTTGGTTGCTTGTGTTGTGTGCTGTGCTGTGCAGTCGGAGTCACCTAGTGCAG`
-- reply 8220 fluorescence intensity (a.u.)

-- ask binding signal for `CGTTCATTCCGCATCCAATGGCAGCACTGGTTCCTAGCTTCGGAGTCACCTAGTGCAG` ?
-- reply 8110 fluorescence intensity (a.u.)

* * *

# System under test: OsWRKY34 (Oryza sativa, UniProt Q0JBA9 1-250)
# Protocol description: protein-binding microarray (RPBM); PBS, 2% BSA, 51.3 ng/ul salmon testes DNA, 50 uM zinc acetate, 200 nM TF, 25 C, 1 h; high values mean tight binding
# Conditions used: protein: recombinant; tags: N-terminal polyhistidine and DsRed monomer fusion (pET32a); label: CyDye5-dUTP incorporated in the synthesized complementary strand; 3' TTTTT single-stranded linker to array surface; dsDNA, one strand shown
Over roughly 68,000 sequences, “fluorescence intensity (a.u.)” has its median near 9,100; the highest 2% begin near 16,000. The full list was thinned out, with the highest values kept by preference.
Items are presented alongside their recorded binding signal.

Below: 10 sequences and their reported binding signal.
CAGGCGACCACCTCCAGCTCCGCGCCATCTCCATGTCATCCGGAGTCACCTAGTGCAG    10800 fluorescence intensity (a.u.)
CCGCTGCCGCTTCCGCTTCCGCTTCTTCCGTTCTGGAGACCGGAGTCACCTAGTGCAG    10400 fluorescence intensity (a.u.)
TCCACTATGGCCATCCTGATATCTTTGATCGTCTTTTCCACGGAGTCACCTAGTGCAG    17500 fluorescence intensity (a.u.)
ATTTGCATGACATATATCATTACTACATTATTTTATATAGCGGAGTCACCTAGTGCAG    8930 fluorescence intensity (a.u.)
TTGACACTGTTGACTTTTTAATATATGTTTGACTGTTCGTCGGAGTCACCTAGTGCAG    20400 fluorescence intensity (a.u.)
GTCGTTGACTTTTTAACCACAACGTTTGACCATTCGTCTTCGGAGTCACCTAGTGCAG    21800 fluorescence intensity (a.u.)
TTTTTGTTTTTTAATTGTGGAGTTTGGGAGGAGGAGGGGACGGAGTCACCTAGTGCAG    9870 fluorescence intensity (a.u.)
CTCTCACACCGTGCCATATCCCGAACATCCCTTGATCGAACGGAGTCACCTAGTGCAG    9530 fluorescence intensity (a.u.)
GCAAAAGCCAAACTGAATTCCCGACGCGTGCGCGCGCGCACGGAGTCACCTAGTGCAG    8180 fluorescence intensity (a.u.)
GTTGCAGGGTGGGGATTGTTAAATTTATTGTTTGGCTGGACGGAGTCACCTAGTGCAG    16600 fluorescence intensity (a.u.)

-- ask Item under review: `TCTTCTTCTTGTTTCGGCTTCCGCCTCCGTCCCGCGCGCGCGGAGTCACCTAGTGCAG` . Reported binding signal?
-- reply 13800 fluorescence intensity (a.u.)

-- ask For the sequence `GTTTGATCCATTACAGCTCCACATATATTGTGAAATCATTCGGAGTCACCTAGTGCAG` , what binding signal is on record?
-- reply 10500 fluorescence intensity (a.u.)

-- ask Tell me the measured binding signal of `TTGACCAACGTTTAACCATTCGTTTCATTTAATTTTTTTTCGGAGTCACCTAGTGCAG` , please.
-- reply 10800 fluorescence intensity (a.u.)

* * *

# System under test: OsWRKY34 (Oryza sativa, UniProt Q0JBA9 1-250)
# Protocol description: protein-binding microarray (RPBM); PBS, 2% BSA, 51.3 ng/ul salmon testes DNA, 50 uM zinc acetate, 200 nM TF, 25 C, 1 h; high values mean tight binding
# Conditions used: protein: recombinant; tags: N-terminal polyhistidine and DsRed monomer fusion (pET32a); label: CyDye5-dUTP incorporated in the synthesized complementary strand; 3' TTTTT single-stranded linker to array surface; dsDNA, one strand shown
The full ranking holds about 68,000 sequences; the median of “fluorescence intensity (a.u.)” is about 9,100, and the highest 2% start at about 16,000. The entries come from a sample that favours the highest values as a whole.
// binding signal lookup, one value per entry

Here are 3 sequences together with their reported answers.
TTCCTTCTTCCTTCTTTTTTTCTCTCTTCTCCTTTTTTTTCGGAGTCACCTAGTGCAG    10300 fluorescence intensity (a.u.)
ATATTTTCCGCCTACCCTGTACGCACGTTTATATACACAACGGAGTCACCTAGTGCAG    9400 fluorescence intensity (a.u.)
TTCTTTTTTTGTGGGGAGAGGCGGGCTGTTTTTTTCTTGCCGGAGTCACCTAGTGCAG    15900 fluorescence intensity (a.u.)

-- ask What value of measured binding signal is listed for `AGCAGTTAACCCACCGTACAACAAAATCAATCAGTTTCTTCGGAGTCACCTAGTGCAG` ?
-- reply 8270 fluorescence intensity (a.u.)

-- ask I would be grateful if you could share the reported binding signal for `CAATCCGGACCATATAAGTGTTTTCCTTTTTTAATTCTTTCGGAGTCACCTAGTGCAG` .
-- reply 11300 fluorescence intensity (a.u.)

-- ask Please give the measured binding signal for this sequence: `GTAGGAAAGTTTGTTTGTGTGTGTAGAAAAGTTTTGATGTCGGAGTCACCTAGTGCAG`
-- reply 21000 fluorescence intensity (a.u.)

-- ask For the sequence shown here, `CGCCGCCGCTCGCCGACGTCGCCGCCATCGCCATTACAGCCGGAGTCACCTAGTGCAG` , give the reported binding signal.
-- reply 8980 fluorescence intensity (a.u.)

-- ask Reported binding signal, sequence `TCGTAGGGTGCGGGGTGGCTGCCTGTCTCCTTCGCCTCGCCGGAGTCACCTAGTGCAG` : ____
-- reply 9680 fluorescence intensity (a.u.)

-- ask Entry `GTACGCAACTTGTCCGCAGCCGCGACCCCGACCCGACCCGCGGAGTCACCTAGTGCAG` has what binding signal?
-- reply 8200 fluorescence intensity (a.u.)
